- METHOD_NOTES: Pharmacokinetic study of dalbavancin components in rat plasma after IV dalbavancin hydrochloride (UHPLC-MS/MS)
- CONDITION_DETAILS: D1, single-dose group, SD rats, IV 40 mg/kg dalbavancin hydrochloride, 0 to 216 h, UHPLC-MS/MS, non-compartmental, mean ± SD, n = 10

{"SMI": "CC(C)CCCCCCCCC(=O)N[C@H]1[C@H](Oc2c3cc4cc2Oc2ccc(cc2Cl)[C@@H](O)[C@@H]2NC(=O)[C@H](NC(=O)[C@@H]4NC(=O)[C@H]4NC(=O)[C@@H](Cc5ccc(cc5)O3)NC(=O)[C@H](N(C)C)c3ccc(O)c(c3)Oc3cc(O)c(Cl)c4c3)c3ccc(O)c(c3)-c3c(O[C@H]4O[C@H](CO)[C@@H](O)[C@H](O)[C@@H]4O)cc(O)cc3[C@@H](C(=O)NCCCN(C)C)NC2=O)O[C@H](C(=O)O)[C@@H](O)[C@@H]1O", "AUC(0–t), µg·h/mL": 163.7}
{"SMI": "CCCCCCCCCCC(=O)N[C@H]1[C@H](Oc2c3cc4cc2Oc2ccc(cc2Cl)[C@@H](O)[C@@H]2NC(=O)[C@H](NC(=O)[C@@H]4NC(=O)[C@H]4NC(=O)[C@@H](Cc5ccc(cc5)O3)NC(=O)[C@H](NC)c3ccc(O)c(c3)Oc3cc(O)c(Cl)c4c3)c3ccc(O)c(c3)-c3c(O[C@H]4O[C@H](CO)[C@@H](O)[C@H](O)[C@@H]4O)cc(O)cc3[C@@H](C(=O)NCCCN(C)C)NC2=O)O[C@H](C(=O)O)[C@@H](O)[C@@H]1O", "AUC(0–t), µg·h/mL": 155.4}
{"SMI": "CN[C@H]1C(=O)N[C@@H]2Cc3ccc(cc3)Oc3cc4cc(c3O[C@@H]3O[C@H](C(=O)O)[C@@H](O)[C@H](O)[C@H]3NC(=O)CCCCCCCC(C)C)Oc3ccc(cc3Cl)[C@@H](O)[C@@H]3NC(=O)[C@H](NC(=O)[C@@H]4NC(=O)[C@@H](NC2=O)c2cc(cc(O)c2Cl)Oc2cc1ccc2O)c1ccc(O)c(c1)-c1c(O[C@H]2O[C@H](CO)[C@@H](O)[C@H](O)[C@@H]2O)cc(O)cc1[C@@H](C(=O)NCCCN(C)C)NC3=O", "AUC(0–t), µg·h/mL": 10.5}
{"SMI": "CCCCCCCCCCCC(=O)N[C@H]1[C@H](Oc2c3cc4cc2Oc2ccc(cc2Cl)[C@@H](O)[C@@H]2NC(=O)[C@H](NC(=O)[C@@H]4NC(=O)[C@H]4NC(=O)[C@@H](Cc5ccc(cc5)O3)NC(=O)[C@H](NC)c3ccc(O)c(c3)Oc3cc(O)c(Cl)c4c3)c3ccc(O)c(c3)-c3c(O[C@H]4O[C@H](CO)[C@@H](O)[C@H](O)[C@@H]4O)cc(O)cc3[C@@H](C(=O)NCCCN(C)C)NC2=O)O[C@H](C(=O)O)[C@@H](O)[C@@H]1O", "AUC(0–t), µg·h/mL": 688.2}

###

- METHOD_NOTES: Pharmacokinetic study of dalbavancin components in rat plasma after IV dalbavancin hydrochloride (UHPLC-MS/MS)
- CONDITION_DETAILS: D1, single-dose group, SD rats, IV 40 mg/kg dalbavancin hydrochloride, mean ± SD, n = 10
READOUT_NAME: Cmax (µg/mL)

{"COMPOUND": "CCCCCCCCCCC(=O)N[C@H]1[C@H](Oc2c3cc4cc2Oc2ccc(cc2Cl)[C@@H](O)[C@@H]2NC(=O)[C@H](NC(=O)[C@@H]4NC(=O)[C@H]4NC(=O)[C@@H](Cc5ccc(cc5)O3)NC(=O)[C@H](NC)c3ccc(O)c(c3)Oc3cc(O)c(Cl)c4c3)c3ccc(O)c(c3)-c3c(O[C@H]4O[C@H](CO)[C@@H](O)[C@H](O)[C@@H]4O)cc(O)cc3[C@@H](C(=O)NCCCN(C)C)NC2=O)O[C@H](C(=O)O)[C@@H](O)[C@@H]1O [A1]", "OBSERVED_VALUE": 14.8}
{"COMPOUND": "CCCCCCCCCCCC(=O)N[C@H]1[C@H](Oc2c3cc4cc2Oc2ccc(cc2Cl)[C@@H](O)[C@@H]2NC(=O)[C@H](NC(=O)[C@@H]4NC(=O)[C@H]4NC(=O)[C@@H](Cc5ccc(cc5)O3)NC(=O)[C@H](NC)c3ccc(O)c(c3)Oc3cc(O)c(Cl)c4c3)c3ccc(O)c(c3)-c3c(O[C@H]4O[C@H](CO)[C@@H](O)[C@H](O)[C@@H]4O)cc(O)cc3[C@@H](C(=O)NCCCN(C)C)NC2=O)O[C@H](C(=O)O)[C@@H](O)[C@@H]1O [B1]", "OBSERVED_VALUE": 42.9}
{"COMPOUND": "CN[C@H]1C(=O)N[C@@H]2Cc3ccc(cc3)Oc3cc4cc(c3O[C@@H]3O[C@H](C(=O)O)[C@@H](O)[C@H](O)[C@H]3NC(=O)CCCCCCCC(C)C)Oc3ccc(cc3Cl)[C@@H](O)[C@@H]3NC(=O)[C@H](NC(=O)[C@@H]4NC(=O)[C@@H](NC2=O)c2cc(cc(O)c2Cl)Oc2cc1ccc2O)c1ccc(O)c(c1)-c1c(O[C@H]2O[C@H](CO)[C@@H](O)[C@H](O)[C@@H]2O)cc(O)cc1[C@@H](C(=O)NCCCN(C)C)NC3=O [A0]", "OBSERVED_VALUE": 1.8}
{"COMPOUND": "CC(C)CCCCCCCCC(=O)N[C@H]1[C@H](Oc2c3cc4cc2Oc2ccc(cc2Cl)[C@@H](O)[C@@H]2NC(=O)[C@H](NC(=O)[C@@H]4NC(=O)[C@H]4NC(=O)[C@@H](Cc5ccc(cc5)O3)NC(=O)[C@H](N(C)C)c3ccc(O)c(c3)Oc3cc(O)c(Cl)c4c3)c3ccc(O)c(c3)-c3c(O[C@H]4O[C@H](CO)[C@@H](O)[C@H](O)[C@@H]4O)cc(O)cc3[C@@H](C(=O)NCCCN(C)C)NC2=O)O[C@H](C(=O)O)[C@@H](O)[C@@H]1O [B2]", "OBSERVED_VALUE": 23.4}
